- experimentalSystem: CAVB (Homo sapiens, UniProt Q9Y2D0)
- Sequence (Q9Y2D0 34-317): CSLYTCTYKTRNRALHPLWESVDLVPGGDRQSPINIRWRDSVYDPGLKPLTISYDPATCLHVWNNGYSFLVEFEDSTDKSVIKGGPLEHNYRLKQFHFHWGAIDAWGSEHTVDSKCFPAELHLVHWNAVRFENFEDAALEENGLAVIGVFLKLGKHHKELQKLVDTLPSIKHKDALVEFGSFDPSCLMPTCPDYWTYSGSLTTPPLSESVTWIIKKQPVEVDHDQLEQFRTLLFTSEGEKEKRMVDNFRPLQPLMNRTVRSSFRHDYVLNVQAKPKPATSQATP
- assayOverview: fluorescent thermal shift assay (FTSA), CAVB
- Format: binding
- conditionsUsed: converted from Kd_obs, 37 °C, pH 7.0, FTSA
Lab note: anything with ΔGobs CAVB below -10 kcal/mol is marked yes; values at -10 kcal/mol or higher are marked no.

>  <compound>
COC(=O)c1cc(S(N)(=O)=O)c(Cl)cc1Sc1ccccc1

>  <categoryLabel>
no

$$$$
>  <compound>
COC(=O)c1cc(S(N)(=O)=O)c(Br)cc1Sc1ccccc1

>  <categoryLabel>
yes

$$$$
>  <compound>
COC(=O)c1cc(S(N)(=O)=O)c(SC2CCCCCCCCCCC2)cc1Cl

>  <categoryLabel>
no

$$$$
>  <compound>
COC(=O)c1cc(S(N)(=O)=O)c(Cl)cc1SCCc1ccccc1

>  <categoryLabel>
yes

$$$$
>  <compound>
COC(=O)c1cc(S(N)(=O)=O)c(Cl)cc1SCc1ccccc1

>  <categoryLabel>
no

$$$$
>  <compound>
COC(=O)c1cc(S(N)(=O)=O)c(Cl)cc1Cl [Compound 1, Methyl 2,4-dichloro-5-sulfamoyl-benzoate]

>  <categoryLabel>
no

$$$$
>  <compound>
COC(=O)c1cc(S(N)(=O)=O)c(Cl)cc1S(=O)(=O)c1cccc2ccccc12

>  <categoryLabel>
yes

$$$$
>  <compound>
COC(=O)c1cc(S(N)(=O)=O)c(Cl)cc1S(=O)(=O)c1ccccc1

>  <categoryLabel>
yes

$$$$
>  <compound>
COC(=O)c1cc(S(N)(=O)=O)c(S(=O)(=O)C2CCCCC2)cc1Br

>  <categoryLabel>
no

$$$$
>  <compound>
COC(=O)c1cc(S(N)(=O)=O)c(Cl)cc1Sc1cccc2ccccc12

>  <categoryLabel>
no

$$$$
>  <compound>
COC(=O)c1cc(S(N)(=O)=O)c(Cl)cc1S(=O)(=O)C1CCCCC1

>  <categoryLabel>
yes

$$$$
>  <compound>
COC(=O)c1cc(S(N)(=O)=O)c(Cl)cc1SC1CCCCC1

>  <categoryLabel>
yes

$$$$
>  <compound>
COC(=O)c1cc(S(N)(=O)=O)c(SCc2ccccc2)cc1Cl

>  <categoryLabel>
no

$$$$
>  <compound>
COC(=O)c1cc(S(N)(=O)=O)c(Br)cc1Br [Compound 2, Methyl 2,4-dibromo-5-sulfamoyl-benzoate]

>  <categoryLabel>
yes

$$$$
>  <compound>
COC(=O)c1cc(S(N)(=O)=O)c(Cl)cc1S(=O)(=O)CCc1ccccc1

>  <categoryLabel>
yes

$$$$
>  <compound>
COC(=O)c1cc(S(N)(=O)=O)c(S(=O)(=O)Cc2ccccc2)cc1Cl

>  <categoryLabel>
no

$$$$
>  <compound>
COC(=O)c1cc(S(N)(=O)=O)c(Cl)cc1S(=O)(=O)Cc1ccccc1

>  <categoryLabel>
yes

$$$$
>  <compound>
COC(=O)c1cc(S(N)(=O)=O)c(SC2CCCCC2)cc1Cl

>  <categoryLabel>
no

$$$$
>  <compound>
COC(=O)c1cc(S(N)(=O)=O)c(S(=O)(=O)C2CCCCC2)cc1Cl

>  <categoryLabel>
no

$$$$
>  <compound>
COC(=O)c1cc(S(N)(=O)=O)c(S(=O)(=O)CCc2ccccc2)cc1Cl

>  <categoryLabel>
no

$$$$
>  <compound>
COC(=O)c1cc(S(N)(=O)=O)c(SCCc2ccccc2)cc1Cl

>  <categoryLabel>
no

$$$$
>  <compound>
COC(=O)c1cc(S(N)(=O)=O)c(Br)cc1S(=O)(=O)c1ccccc1 [Compound 10a]

>  <categoryLabel>
yes

$$$$
>  <compound>
COC(=O)c1cc(S(N)(=O)=O)c(SC2CCCCC2)cc1Br

>  <categoryLabel>
no

$$$$

###

- experimentalSystem: CAI (Homo sapiens, UniProt P00915)
- Sequence (P00915 whole entry): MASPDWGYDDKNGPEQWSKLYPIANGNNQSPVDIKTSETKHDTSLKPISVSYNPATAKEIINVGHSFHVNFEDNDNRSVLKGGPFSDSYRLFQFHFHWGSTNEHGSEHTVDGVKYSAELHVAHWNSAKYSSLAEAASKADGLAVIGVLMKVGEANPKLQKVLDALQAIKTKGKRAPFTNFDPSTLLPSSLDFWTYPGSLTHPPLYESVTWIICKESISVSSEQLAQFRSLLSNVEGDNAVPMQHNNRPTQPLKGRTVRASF
- assayOverview: fluorescent thermal shift assay (FTSA), CAI
- Type: binding
- conditionsUsed: converted from Kd_intr, 37 °C, independent of pH

>  <compound>
COC(=O)c1cc(S(N)(=O)=O)c(S(=O)(=O)Cc2ccccc2)cc1Cl [Compound 7c]

>  <unitName>
kcal/mol

>  <comparisonSign>
≥

>  <ΔGintr CAI>
-9.27

$$$$
>  <compound>
COC(=O)c1cc(S(N)(=O)=O)c(S(=O)(=O)CCc2ccccc2)cc1Cl [Compound 7d]

>  <unitName>
kcal/mol

>  <comparisonSign>
=

>  <ΔGintr CAI>
-9.27

$$$$
>  <compound>
COC(=O)c1cc(S(N)(=O)=O)c(Br)cc1Br [Compound 2, Methyl 2,4-dibromo-5-sulfamoyl-benzoate]

>  <unitName>
kcal/mol

>  <comparisonSign>
=

>  <ΔGintr CAI>
-9.27

$$$$
>  <compound>
COC(=O)c1cc(S(N)(=O)=O)c(SC2CCCCCCCCCCC2)cc1Cl [Compound 3e]

>  <unitName>
kcal/mol

>  <comparisonSign>
=

>  <ΔGintr CAI>
-10.7

$$$$

###

- experimentalSystem: CAVII (Homo sapiens)
- Sequence (P43166 whole entry): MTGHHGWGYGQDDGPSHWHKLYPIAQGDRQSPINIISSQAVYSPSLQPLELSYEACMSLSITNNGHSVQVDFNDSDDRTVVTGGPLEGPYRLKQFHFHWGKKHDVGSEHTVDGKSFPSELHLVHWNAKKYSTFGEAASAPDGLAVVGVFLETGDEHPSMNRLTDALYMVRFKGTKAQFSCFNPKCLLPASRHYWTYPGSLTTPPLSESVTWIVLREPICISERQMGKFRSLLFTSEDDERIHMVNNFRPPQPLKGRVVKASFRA
- assayOverview: fluorescent thermal shift assay (FTSA), CAVII
- Assay type: binding
- conditionsUsed: converted from Kd_obs, 37 °C, pH 7.0, FTSA
# ΔGobs CAVII per record follows
measuredMetric: ΔGobs CAVII

>  <molecule>
COC(=O)c1cc(S(N)(=O)=O)c(Cl)cc1Sc1ccccc1 [Compound 5a]

>  <experimentalSystem>
CAVII (Homo sapiens)

>  <measuredValue>
-10.3 kcal/mol

$$$$
>  <molecule>
COC(=O)c1cc(S(N)(=O)=O)c(Br)cc1Sc1ccccc1 [Compound 6a]

>  <experimentalSystem>
CAVII (Homo sapiens)

>  <measuredValue>
-9.46 kcal/mol

$$$$
>  <molecule>
COC(=O)c1cc(S(N)(=O)=O)c(S(=O)(=O)C2CCCCC2)cc1Cl [Compound 7b]

>  <experimentalSystem>
CAVII (Homo sapiens)

>  <measuredValue>
≥ -5.26 kcal/mol

$$$$
>  <molecule>
COC(=O)c1cc(S(N)(=O)=O)c(Cl)cc1Cl [Compound 1, Methyl 2,4-dichloro-5-sulfamoyl-benzoate]

>  <experimentalSystem>
CAVII (Homo sapiens)

>  <measuredValue>
-10.2 kcal/mol

$$$$
>  <molecule>
COC(=O)c1cc(S(N)(=O)=O)c(Cl)cc1S(=O)(=O)c1cccc2ccccc12 [Compound 9f]

>  <experimentalSystem>
CAVII (Homo sapiens)

>  <measuredValue>
-13 kcal/mol

$$$$

###

- experimentalSystem: CAIII (Homo sapiens)
- Sequence (P07451 whole entry): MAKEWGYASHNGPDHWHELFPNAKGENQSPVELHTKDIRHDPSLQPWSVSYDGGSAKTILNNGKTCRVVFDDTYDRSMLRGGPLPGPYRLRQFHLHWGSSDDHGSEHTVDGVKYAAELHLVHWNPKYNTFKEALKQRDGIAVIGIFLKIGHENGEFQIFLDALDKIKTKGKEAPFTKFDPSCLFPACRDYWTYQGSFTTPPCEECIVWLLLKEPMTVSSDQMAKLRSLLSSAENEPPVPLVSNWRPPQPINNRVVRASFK
- assayOverview: fluorescent thermal shift assay (FTSA), CAIII
- Type: binding
- conditionsUsed: converted from Kd_intr, 37 °C, independent of pH
measuredMetric: ΔGintr CAIII (kJ/mol)

>  <compound>
COC(=O)c1cc(S(N)(=O)=O)c(Cl)cc1S(=O)(=O)CCc1ccccc1

>  <experimentalSystem>
CAIII (Homo sapiens)

>  <comparisonSign>
=

>  <measuredValue>
-47.9

$$$$
>  <compound>
COC(=O)c1cc(S(N)(=O)=O)c(SC2CCCCCCCCCCC2)cc1Cl

>  <experimentalSystem>
CAIII (Homo sapiens)

>  <comparisonSign>
≥

>  <measuredValue>
-41.1

$$$$
>  <compound>
COC(=O)c1cc(S(N)(=O)=O)c(Cl)cc1Sc1cccc2ccccc12

>  <experimentalSystem>
CAIII (Homo sapiens)

>  <comparisonSign>
≥

>  <measuredValue>
-39.9

$$$$
>  <compound>
COC(=O)c1cc(S(N)(=O)=O)c(S(=O)(=O)C2CCCCC2)cc1Cl

>  <experimentalSystem>
CAIII (Homo sapiens)

>  <comparisonSign>
=

>  <measuredValue>
-44.1

$$$$
>  <compound>
COC(=O)c1cc(S(N)(=O)=O)c(SCc2ccccc2)cc1Cl

>  <experimentalSystem>
CAIII (Homo sapiens)

>  <comparisonSign>
=

>  <measuredValue>
-42.9

$$$$
>  <compound>
COC(=O)c1cc(S(N)(=O)=O)c(Br)cc1Br [Compound 2, Methyl 2,4-dibromo-5-sulfamoyl-benzoate]

>  <experimentalSystem>
CAIII (Homo sapiens)

>  <comparisonSign>
≥

>  <measuredValue>
-36.4

$$$$
>  <compound>
COC(=O)c1cc(S(N)(=O)=O)c(Br)cc1Sc1ccccc1

>  <experimentalSystem>
CAIII (Homo sapiens)

>  <comparisonSign>
≥

>  <measuredValue>
-39.9

$$$$
>  <compound>
COC(=O)c1cc(S(N)(=O)=O)c(S(=O)(=O)C2CCCCC2)cc1Br

>  <experimentalSystem>
CAIII (Homo sapiens)

>  <comparisonSign>
≥

>  <measuredValue>
-42.9

$$$$
>  <compound>
COC(=O)c1cc(S(N)(=O)=O)c(SC2CCCCC2)cc1Cl

>  <experimentalSystem>
CAIII (Homo sapiens)

>  <comparisonSign>
=

>  <measuredValue>
-45.2

$$$$
>  <compound>
COC(=O)c1cc(S(N)(=O)=O)c(S(=O)(=O)CCc2ccccc2)cc1Cl

>  <experimentalSystem>
CAIII (Homo sapiens)

>  <comparisonSign>
≥

>  <measuredValue>
-42.3

$$$$
>  <compound>
COC(=O)c1cc(S(N)(=O)=O)c(Cl)cc1S(=O)(=O)Cc1ccccc1

>  <experimentalSystem>
CAIII (Homo sapiens)

>  <comparisonSign>
=

>  <measuredValue>
-48.6

$$$$
>  <compound>
COC(=O)c1cc(S(N)(=O)=O)c(S(=O)(=O)Cc2ccccc2)cc1Cl

>  <experimentalSystem>
CAIII (Homo sapiens)

>  <comparisonSign>
≥

>  <measuredValue>
-42.3

$$$$
>  <compound>
COC(=O)c1cc(S(N)(=O)=O)c(Cl)cc1Cl [Compound 1, Methyl 2,4-dichloro-5-sulfamoyl-benzoate]

>  <experimentalSystem>
CAIII (Homo sapiens)

>  <comparisonSign>
=

>  <measuredValue>
-40.5

$$$$
>  <compound>
COC(=O)c1cc(S(N)(=O)=O)c(Cl)cc1SCc1ccccc1

>  <experimentalSystem>
CAIII (Homo sapiens)

>  <comparisonSign>
≥

>  <measuredValue>
-39.9

$$$$
>  <compound>
COC(=O)c1cc(S(N)(=O)=O)c(SC2CCCCC2)cc1Br

>  <experimentalSystem>
CAIII (Homo sapiens)

>  <comparisonSign>
=

>  <measuredValue>
-44.8

$$$$
